subject.of.test: Elastase (Sus scrofa, UniProt P00772)
Sequence (P00772 27-266): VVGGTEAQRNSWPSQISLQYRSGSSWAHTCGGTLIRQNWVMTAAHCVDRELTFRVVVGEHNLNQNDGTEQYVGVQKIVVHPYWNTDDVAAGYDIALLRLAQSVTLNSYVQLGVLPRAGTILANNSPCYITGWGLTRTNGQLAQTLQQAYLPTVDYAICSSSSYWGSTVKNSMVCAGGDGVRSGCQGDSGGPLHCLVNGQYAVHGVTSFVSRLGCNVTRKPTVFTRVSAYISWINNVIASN
experiment.summary: Esterase assay, elastase
Format: biochemical
test.conditions: Z-AX-OMe substrate, X = P1 residue; rates approximately ± 10%
Where a SMILES comes first, the peptide text is derived from it. The star is where a group is joined. Cbz = O=C(OCc1ccccc1)*
measurement.label: Esterase rate, Elastase

molecule="COC(=O)[C@H](CCCNC(=N)N)NC(=O)[C@H](C)NC(=O)OCc1ccccc1 [Arg, Z-Ala-Arg-OMe] (Cbz-Ala-Arg-OMe)" endpoint_value="0 A580 change/min./mg protease"
molecule="COC(=O)[C@H](CCC(N)=O)NC(=O)[C@H](C)NC(=O)OCc1ccccc1 [Gln] (Cbz-Ala-Gln-OMe)" endpoint_value="0 A580 change/min./mg protease"
molecule="COC(=O)[C@H](Cc1ccc(O)cc1)NC(=O)[C@H](C)NC(=O)OCc1ccccc1 [Tyr, Z-Ala-Tyr-OMe] (Cbz-Ala-Tyr-OMe)" endpoint_value="0 A580 change/min./mg protease"
molecule="COC(=O)[C@@H]1CCCN1C(=O)[C@H](C)NC(=O)OCc1ccccc1 [Pro] (Cbz-Ala-Pro-OMe)" endpoint_value="0 A580 change/min./mg protease"
molecule="COC(=O)[C@H](CC(N)=O)NC(=O)[C@H](C)NC(=O)OCc1ccccc1 [Asn] (Cbz-Ala-Asn-OMe)" endpoint_value="0 A580 change/min./mg protease"
molecule="COC(=O)[C@H](C)NC(=O)[C@H](C)NC(=O)OCc1ccccc1 [Ala] (Cbz-Ala-Ala-OMe)" endpoint_value="15.7 A580 change/min./mg protease"
molecule=COC(=O)[C@H](Cc1ccccc1)NC(=O)[C@H](C)NC(=O)OCc1ccccc1 endpoint_value="0 A580 change/min./mg protease"
molecule="COC(=O)[C@H](CS)NC(=O)[C@H](C)NC(=O)OCc1ccccc1 [Cys] (Cbz-Ala-Cys-OMe)" endpoint_value="86.1 A580 change/min./mg protease"
molecule="COC(=O)[C@H](CCCCN)NC(=O)[C@H](C)NC(=O)OCc1ccccc1 [Lys] (Cbz-Ala-Lys-OMe)" endpoint_value="0 A580 change/min./mg protease"
molecule="COC(=O)[C@H](CC(=O)O)NC(=O)[C@H](C)NC(=O)OCc1ccccc1 [Asp] (Cbz-Ala-Asp-OMe)" endpoint_value="0 A580 change/min./mg protease"
molecule="COC(=O)[C@@H](NC(=O)[C@H](C)NC(=O)OCc1ccccc1)C(C)C [Val] (Cbz-Ala-Val-OMe)" endpoint_value="2.1 A580 change/min./mg protease"
molecule="COC(=O)[C@H](CCSC)NC(=O)[C@H](C)NC(=O)OCc1ccccc1 [Met] (Cbz-Ala-Met-OMe)" endpoint_value=trace
molecule="COC(=O)CNC(=O)[C@H](C)NC(=O)OCc1ccccc1 [Gly] (Cbz-Ala-Gly-OMe)" endpoint_value="0 A580 change/min./mg protease"
molecule="CC[C@H](C)[C@H](NC(=O)[C@H](C)NC(=O)OCc1ccccc1)C(=O)OC [Ile] (Cbz-Ala-Ile-OMe)" endpoint_value="1.7 A580 change/min./mg protease"
molecule="COC(=O)[C@@H](NC(=O)[C@H](C)NC(=O)OCc1ccccc1)[C@@H](C)O [Thr] (Cbz-Ala-Thr-OMe)" endpoint_value="3.1 A580 change/min./mg protease"
molecule="COC(=O)[C@H](Cc1cnc[nH]1)NC(=O)[C@H](C)NC(=O)OCc1ccccc1 [His] (Cbz-Ala-His-OMe)" endpoint_value="0 A580 change/min./mg protease"

----------
System: Trypsin
experiment.summary: Esterase assay, trypsin
Format: biochemical
test.conditions: Z-AX-OMe substrate; percentage of the maximum activity
Where a SMILES comes first, the peptide text is derived from it. The star is where a group is joined. Cbz = O=C(OCc1ccccc1)*
Quick reference for % of maximum activity, Trypsin among some compounds
measurement.label: % of maximum activity, Trypsin

compound="CC[C@H](C)[C@H](NC(=O)[C@H](C)NC(=O)OCc1ccccc1)C(=O)OC [Ile] (Cbz-Ala-Ile-OMe)" measurement_label="% of maximum activity, Trypsin" endpoint_value=0%
compound="COC(=O)[C@H](CCC(=O)O)NC(=O)[C@H](C)NC(=O)OCc1ccccc1 [Glu] (Cbz-Ala-Glu-OMe)" measurement_label="% of maximum activity, Trypsin" endpoint_value=0%
compound="COC(=O)[C@H](Cc1cnc[nH]1)NC(=O)[C@H](C)NC(=O)OCc1ccccc1 [His] (Cbz-Ala-His-OMe)" measurement_label="% of maximum activity, Trypsin" endpoint_value=0.8%
compound="COC(=O)[C@H](CC(C)C)NC(=O)[C@H](C)NC(=O)OCc1ccccc1 [Leu] (Cbz-Ala-Leu-OMe)" measurement_label="% of maximum activity, Trypsin" endpoint_value=0%
compound="COC(=O)[C@H](CC(=O)O)NC(=O)[C@H](C)NC(=O)OCc1ccccc1 [Asp] (Cbz-Ala-Asp-OMe)" measurement_label="% of maximum activity, Trypsin" endpoint_value=0%
compound="COC(=O)[C@H](CCCNC(=N)N)NC(=O)[C@H](C)NC(=O)OCc1ccccc1 [Arg, Z-Ala-Arg-OMe] (Cbz-Ala-Arg-OMe)" measurement_label="% of maximum activity, Trypsin" endpoint_value=100%
compound="COC(=O)[C@@H](NC(=O)[C@H](C)NC(=O)OCc1ccccc1)C(C)C [Val] (Cbz-Ala-Val-OMe)" measurement_label="% of maximum activity, Trypsin" endpoint_value=0%
compound="COC(=O)[C@H](CCCCN)NC(=O)[C@H](C)NC(=O)OCc1ccccc1 [Lys] (Cbz-Ala-Lys-OMe)" measurement_label="% of maximum activity, Trypsin" endpoint_value=44.0%
compound="COC(=O)[C@@H](NC(=O)[C@H](C)NC(=O)OCc1ccccc1)[C@@H](C)O [Thr] (Cbz-Ala-Thr-OMe)" measurement_label="% of maximum activity, Trypsin" endpoint_value=0%
compound="COC(=O)[C@H](CC(N)=O)NC(=O)[C@H](C)NC(=O)OCc1ccccc1 [Asn] (Cbz-Ala-Asn-OMe)" measurement_label="% of maximum activity, Trypsin" endpoint_value=0%
compound="COC(=O)CNC(=O)[C@H](C)NC(=O)OCc1ccccc1 [Gly] (Cbz-Ala-Gly-OMe)" measurement_label="% of maximum activity, Trypsin" endpoint_value=0%

----------
subject.of.test: Elastase (Sus scrofa, UniProt P00772)
experiment.summary: Esterase assay, elastase
Format: biochemical
test.conditions: Z-AX-OMe substrate; normalised to alanine
Where a SMILES comes first, the peptide text is derived from it. The star is where a group is joined. Cbz = O=C(OCc1ccccc1)*
In this section we review reported % activity, Elastase values for a set of compounds.
measurement.label: % activity, Elastase (%)

compound="COC(=O)[C@H](Cc1cnc[nH]1)NC(=O)[C@H](C)NC(=O)OCc1ccccc1 [His] (Cbz-Ala-His-OMe)" measurement_label="% activity, Elastase" value_units=% endpoint_value=0
compound="COC(=O)[C@@H]1CCCN1C(=O)[C@H](C)NC(=O)OCc1ccccc1 [Pro] (Cbz-Ala-Pro-OMe)" measurement_label="% activity, Elastase" value_units=% endpoint_value=0
compound="COC(=O)[C@H](CCC(N)=O)NC(=O)[C@H](C)NC(=O)OCc1ccccc1 [Gln] (Cbz-Ala-Gln-OMe)" measurement_label="% activity, Elastase" value_units=% endpoint_value=0
compound="COC(=O)[C@H](CO)NC(=O)[C@H](C)NC(=O)OCc1ccccc1 [Ser] (Cbz-Ala-Ser-OMe)" measurement_label="% activity, Elastase" value_units=% endpoint_value=3.6

----------
Each entry below lists one item and its recorded Esterase rate, Subtilisin value.
System: Subtilisin
experiment.summary: Esterase assay, subtilisin
Assay type: biochemical
test.conditions: Z-AX-OMe substrate, X = P1 residue; rates approximately ± 10%
Where a SMILES comes first, the peptide text is derived from it. The star is where a group is joined. Cbz = O=C(OCc1ccccc1)*
measurement.label: Esterase rate, Subtilisin

compound="COC(=O)[C@H](CCCNC(=N)N)NC(=O)[C@H](C)NC(=O)OCc1ccccc1 [Arg, Z-Ala-Arg-OMe] (Cbz-Ala-Arg-OMe)" endpoint_value="97 A580 change/min./mg protease"
compound="COC(=O)[C@H](CC(N)=O)NC(=O)[C@H](C)NC(=O)OCc1ccccc1 [Asn] (Cbz-Ala-Asn-OMe)" endpoint_value="244 A580 change/min./mg protease"
compound="COC(=O)[C@H](Cc1c[nH]c2ccccc12)NC(=O)[C@H](C)NC(=O)OCc1ccccc1 [Trp] (Cbz-Ala-Trp-OMe)" endpoint_value="216 A580 change/min./mg protease"
compound="COC(=O)[C@H](CS)NC(=O)[C@H](C)NC(=O)OCc1ccccc1 [Cys] (Cbz-Ala-Cys-OMe)" endpoint_value="1251 A580 change/min./mg protease"
compound="COC(=O)[C@H](Cc1ccc(O)cc1)NC(=O)[C@H](C)NC(=O)OCc1ccccc1 [Tyr, Z-Ala-Tyr-OMe] (Cbz-Ala-Tyr-OMe)" endpoint_value="345 A580 change/min./mg protease"
compound="COC(=O)[C@@H](NC(=O)[C@H](C)NC(=O)OCc1ccccc1)C(C)C [Val] (Cbz-Ala-Val-OMe)" endpoint_value="35 A580 change/min./mg protease"
compound="COC(=O)CNC(=O)[C@H](C)NC(=O)OCc1ccccc1 [Gly] (Cbz-Ala-Gly-OMe)" endpoint_value="22 A580 change/min./mg protease"

Where these numbers come from: patent US5932410A
